- Target System: ATP-dependent translocase ABCB1 (MDR1) (Homo sapiens)
- Sequence (P08183 whole entry): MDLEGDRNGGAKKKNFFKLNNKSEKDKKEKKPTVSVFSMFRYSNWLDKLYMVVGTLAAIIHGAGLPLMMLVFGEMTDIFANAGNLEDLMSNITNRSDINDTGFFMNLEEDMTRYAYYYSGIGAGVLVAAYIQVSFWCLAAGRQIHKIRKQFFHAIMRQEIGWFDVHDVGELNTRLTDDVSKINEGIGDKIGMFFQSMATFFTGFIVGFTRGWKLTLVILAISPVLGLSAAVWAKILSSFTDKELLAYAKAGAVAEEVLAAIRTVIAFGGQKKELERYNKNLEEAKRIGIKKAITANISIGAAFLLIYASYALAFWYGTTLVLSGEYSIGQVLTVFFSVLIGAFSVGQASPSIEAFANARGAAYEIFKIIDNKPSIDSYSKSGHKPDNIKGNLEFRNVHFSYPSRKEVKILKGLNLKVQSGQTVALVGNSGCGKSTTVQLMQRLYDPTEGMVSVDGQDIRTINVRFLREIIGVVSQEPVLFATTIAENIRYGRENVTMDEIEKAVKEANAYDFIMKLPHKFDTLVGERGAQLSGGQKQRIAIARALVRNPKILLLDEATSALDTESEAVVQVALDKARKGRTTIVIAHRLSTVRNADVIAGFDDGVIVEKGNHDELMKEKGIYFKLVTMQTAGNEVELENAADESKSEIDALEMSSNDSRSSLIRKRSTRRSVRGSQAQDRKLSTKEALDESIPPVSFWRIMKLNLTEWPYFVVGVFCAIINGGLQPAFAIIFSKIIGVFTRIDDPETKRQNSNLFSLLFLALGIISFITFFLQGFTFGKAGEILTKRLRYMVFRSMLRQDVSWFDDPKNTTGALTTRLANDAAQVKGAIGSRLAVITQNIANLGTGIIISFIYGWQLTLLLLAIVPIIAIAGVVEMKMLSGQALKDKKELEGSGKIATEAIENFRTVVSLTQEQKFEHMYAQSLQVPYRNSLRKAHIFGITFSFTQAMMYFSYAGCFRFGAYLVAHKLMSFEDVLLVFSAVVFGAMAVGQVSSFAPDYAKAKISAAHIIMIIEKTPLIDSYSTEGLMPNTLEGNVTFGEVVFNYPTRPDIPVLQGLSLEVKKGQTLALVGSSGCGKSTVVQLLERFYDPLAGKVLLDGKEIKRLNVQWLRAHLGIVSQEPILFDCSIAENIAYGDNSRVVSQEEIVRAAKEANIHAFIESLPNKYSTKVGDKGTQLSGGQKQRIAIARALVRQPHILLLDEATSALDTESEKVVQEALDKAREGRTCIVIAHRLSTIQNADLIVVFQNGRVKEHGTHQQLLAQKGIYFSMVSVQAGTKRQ
- Method Description: in vitro
- Stated Conditions: dog, MDCK-MDR1
- Description: Apparent permeability (Papp) from apical to basolateral side determined in MDR1-MDCKII cells
Recorded Papp A→B split into classes category 1 (below 1 ×10⁻⁶ cm/s), category 2 (1 ×10⁻⁶ cm/s to below 10 ×10⁻⁶ cm/s), category 3 (10 ×10⁻⁶ cm/s or more)

Which band does COc1cc2c(c(OC)c1OC)-c1ccc(OC)c(=O)cc1[C@@H](NC(C)=O)CC2 [COLCHICINE] fall in?
category 2

* * *

Recorded Papp A→B for the following compounds
- Target System: ATP-dependent translocase ABCB1 (MDR1) (Homo sapiens)
- Method Description: in vitro
- Stated Conditions: dog, MDCK-MDR1, Papp
The response must be a number in ×10⁻⁶ cm/s with no trailing unit.

Example entries begin here.
Cc1c(O)cccc1C(=O)N[C@@H](CSc1ccccc1)[C@H](O)CN1C[C@H]2CCCC[C@H]2C[C@H]1C(=O)NC(C)(C)C	3.81
CC(C)CN(C[C@@H](O)[C@H](Cc1ccccc1)NC(=O)O[C@H]1CCOC1)S(=O)(=O)c1ccc(N)cc1	3.73
CN1CCC[C@@H]1Cc1c[nH]c2ccc(CCS(=O)(=O)c3ccccc3)cc12	1.84
COc1ccc(C[C@H](N)C(=O)N[C@H]2[C@@H](O)[C@H](n3cnc4c(N(C)C)ncnc43)O[C@@H]2CO)cc1	1.15
CC(C)(C)NC(=O)[C@@H]1CN(Cc2cccnc2)CCN1C[C@@H](O)C[C@@H](Cc1ccccc1)C(=O)N[C@H]1c2ccccc2C[C@H]1O.O	0.869
COc1cc2nc(N3CCN(C(=O)c4ccco4)CC3)nc(N)c2cc1OC	14.3
CNC(=C[N+](=O)[O-])NCCSCc1ccc(CN(C)C)o1	1.44
CC(C)NCC(O)COc1cccc2ccccc12 (stereo unspecified)	49.6

Param item = COc1cccc2c1C(=O)c1c(O)c3c(c(O)c1C2=O)C[C@@](O)(C(=O)CO)C[C@@H]3O[C@H]1C[C@H](N)[C@H](O)[C@H](C)O1 ; retrieve measured Papp A→B.
1.45

Param item = C=C[C@H]1C[N@@]2CC[C@H]1C[C@@H]2[C@@H](O)c1ccnc2ccc(OC)cc12 ; retrieve measured Papp A→B.
3.64
